Tested on: HOP-92
Assay: NCI tumour cell line growth inhibition, 48 h
Active and inactive are the calls of the source. Cut-off read from the data, not from the text of the source: active = GI50 up to about 1.1 µM and inactive = higher.
Please answer using one outcome listed in active, inactive

molecule	tested.system	qualitative.label
COC(=O)C1C(=O)O[C@@H](c2ccc(OC)cc2OC)C1C(=O)OC (stereo partly drawn)	HOP-92	inactive

Exercise: In this assay, the call recorded for CC(C)[Si]1(C(C)C)OCC2OC(n3c(C(=O)c4ccccc4)cc(=O)[nH]c3=O)CC2O[Si](C(C)C)(C(C)C)O1 (stereo not drawn) was what?
Solution: inactive

Exercise: In this assay, the call recorded for `CCCN1C(=O)CCC2=C1CCc1c2ccc(Cl)c1Cl` was what?
Solution: inactive

====

GI50 reference
Tested on: HCT-116
Experiment: NCI tumour cell line growth inhibition, 48 h
The source made the active and inactive calls. Cut-off read from the data, not from the text of the source: active = GI50 up to about 1.1 µM and inactive = higher.

In the examples that follow, each entry is paired with its recorded GI50.
molecule	value.observed
CC(=O)NC(CCCNC(=O)N(C)N=O)C(=O)NCc1ccccc1 (stereo not given)	> 100 µM (inactive)
COP(=O)(CC(=O)C1OC(OCc2ccccc2)C(OCc2ccccc2)C(OCc2ccccc2)C1OCc1ccccc1)OC (stereo not given)	5.11 µM (inactive)
C=CC1(C)CCC(C(C)C(=O)C(C=C(C)C)OC(C)=O)C12C(=O)Oc1ccccc1C2=O (stereo not given)	31.1 µM (inactive)
Cc1cccc(NC(=S)N/N=C2\C(=O)Nc3ccccc32)c1	44.9 µM (inactive)

Next up:
Exercise: Name the reported GI50 value associated with the molecule `O=C(CCCCCCCCC(=O)N1C(=O)CC(=O)N(c2ccc(Cl)cc2)C1=S)N1C(=O)CC(=O)N(c2ccc(Cl)cc2)C1=S`
Solution: 48.5 µM (inactive)

====

GI50 reference
Test system: LOX IMVI
Test: NCI tumour cell line growth inhibition, 48 h
Calls of active or inactive are those of the source. Rule as the data show it: active = GI50 up to about 1.1 µM and inactive = higher.

compound	tested.system	GI50
COC(=O)c1c(O)ccc2c1C1(Cc3ccccc3C1=O)C(O)O2 (stereo not given)	LOX IMVI	19.5 µM (inactive)
COC(=O)Cc1cc(=O)oc2c1C(=O)CCC2	LOX IMVI	> 100 µM (inactive)
COc1ccc2cc(CN3CCC(C4CCN(Cc5ccc6cc(OC)ccc6c5)CC4)CC3)ccc2c1	LOX IMVI	2.14 µM (inactive)

Next up:
Exercise: Lab note: need GI50 with LOX IMVI for entry CC(CO)(CO)N1C(=O)C2C3C=CC(C3)C2C1=O (stereo not given) , please look it up.
Solution: > 100 µM (inactive)

====

GI50 reference
System: SNB-19
Test: NCI tumour cell line growth inhibition, 48 h
Active and inactive are the calls of the source. Cut-off read from the data, not from the text of the source: active = GI50 up to about 1.1 µM and inactive = higher.

In the examples that follow, each entry is paired with its recorded GI50.
compound	value.kind	value.observed
CCCC(=O)OC1C(C2COC(C)(C)O2)OC2OC(C)(C)OC21 (centres undefined)	GI50	> 100 µM (inactive)
COc1cccc(CCn2c(N)c(C#N)c3ccc([N+](=O)[O-])cc3c2=O)c1	GI50	98.2 µM (inactive)
O=C(CC/C(C/C(=N/O)c1ccc(F)cc1)=N/O)N(Cc1ccccc1)Cc1ccccc1	GI50	> 100 µM (inactive)
CNC(=O)[C@H](Cc1ccccc1)NC(=O)N(CCC#N)CCN(C(=O)N[C@@H](Cc1ccccc1)C(=O)OC)c1ccccc1	GI50	> 100 µM (inactive)
CC(=O)OCC1OC(Nc2ccc3nc(C)n(-c4ccccc4)c(=O)c3c2)C(OC(C)=O)C(OC(C)=O)C1OC(C)=O (centres undefined)	GI50	> 50 µM (inactive)

Exercise: Lab note: need GI50 with SNB-19 for entry `Cn1nc(-c2ccccc2)nc1[N+](=O)[O-]` , please look it up.
Solution: > 10 µM (inactive)

Exercise: Lab note: need GI50 with SNB-19 for entry `C=CCOn1c(C=C)nc2ccc(C)cc21` , please look it up.
Solution: 17.9 µM (inactive)

Exercise: Lab note: need GI50 with SNB-19 for entry `COc1ccc(NC(=O)C(C#N)=C(SC)SC)cc1` , please look it up.
Solution: > 100 µM (inactive)

Exercise: Lab note: need GI50 with SNB-19 for entry COc1cccc(C2c3cc4c(cc3OC(NNS(=O)(=O)c3ccc(C)cc3)C2C)OCO4)c1OC (centres undefined) , please look it up.
Solution: 3.59 µM (inactive)
